Target: MMP-2CD
Test: Thiopeptolide assay, gelatinase A catalytic domain (GCD/GaCD)
Conditions: 1 nM, pH 7.0, 100 μM thiopeptolide substrate
Each entry below lists one item and its recorded IC50 value.
Answers without a unit are incomplete; give the number and then its unit.

1) CC(C)C[C@H](NS(=O)(=O)c1ccc2c(c1)Sc1ccccc1O2)C(=O)O
23.5 nM
2) O=C(O)[C@H](CCc1ccccc1)NS(=O)(=O)c1ccc2c(c1)S(=O)(=O)c1ccccc1O2
2300 nM
3) CC(C)[C@@H](NS(=O)(=O)c1ccc2c(c1)Sc1ccccc1O2)C(=O)O
27 nM

The recorded IC50 for entry C[S+]([O-])CC[C@H](NS(=O)(=O)c1ccc2c(c1)Sc1ccccc1O2)C(=O)O (stereo partly shown) equals 58.5 nM

---

Quick record of pIC50 values for MMP-3CD (Homo sapiens, UniProt P08254).
Please keep in mind that pIC50 is minus log10 of the molar concentration; only the number is needed.

1. O=C(O)[C@H](CSC(c1ccccc1)(c1ccccc1)c1ccccc1)NS(=O)(=O)c1ccc2c(c1)Sc1ccccc1O2
5.33
2. CC(C)[C@H](NS(=O)(=O)c1ccc2c(c1)Sc1ccccc1S2)C(=O)O
5.16
3. O=C(O)[C@H](Cc1ccc(O)cc1)NS(=O)(=O)c1ccc2c(c1)Sc1ccccc1O2
6.92

Kindly review the next compound as well.
The recorded pIC50 for entry `NC(=O)C[C@H](NS(=O)(=O)c1ccc2c(c1)Sc1ccccc1O2)C(=O)O` equals 6.39

---

Each entry below lists one item and its recorded IC50 value.
Target: MMP-2CD
Test: Thiopeptolide assay, gelatinase A catalytic domain (GCD/GaCD)
Conditions: 1 nM, pH 7.0, 100 μM thiopeptolide substrate
Description: IC50 values were determined using a thiopeptolide substrate, Ac-Pro-Leu-Gly-thioester-Leu-Leu-Gly-OEt (Ye Q. Z., Johnson L. L., Hupe D. J., and Baragi V., "Purification and Characterization of the Human Stromelysin Catalytic Domain Expressed in Escherichia coli," Biochemistry,1992;31:11231-11235). MMP-1, MMP-7, and MMP-13 activity was assayed in a method similar to MMP-2 and MMP-3 (SCD and GCD). MMP-1 can be obtained from Washington University School of Medicine, St. Louis, Mo. […]
Output spec: scalar in nM, unitless text.

Consider the worked cases shown below.
1. O=C(O)[C@H](Cc1ccc(O)cc1)NS(=O)(=O)c1ccc2c(c1)Sc1ccccc1O2 [Example 14]
90
2. NC(=O)C[C@H](NS(=O)(=O)c1ccc2c(c1)Sc1ccccc1O2)C(=O)O [Example 16]
113
3. C[C@H](NS(=O)(=O)c1ccc2c(c1)Sc1ccccc1O2)C(=O)O [Example 9]
33

Kindly review the next compound as well.
The recorded IC50 for entry O=C(O)[C@H](CO)NS(=O)(=O)c1ccc2c(c1)Cc1ccccc1O2 [Example 6] equals 650

---

Quick record of IC50 values for MMP-9 (Homo sapiens).

1. CC(C)[C@H](NS(=O)(=O)c1ccc2c(c1)Sc1ccccc1O2)C(=O)O
19 µM

The value of IC50 recorded for `O=C(O)[C@H](CCc1ccccc1)NS(=O)(=O)c1ccc2c(c1)S(=O)(=O)c1ccccc1O2` when tested on MMP-9 (Homo sapiens) reads > 100 µM

The value of IC50 recorded for `O=C(O)[C@@H](NS(=O)(=O)c1ccc2c(c1)Sc1ccccc1O2)c1ccccc1` when tested on MMP-9 (Homo sapiens) reads > 100 µM

The value of IC50 recorded for `O=C(O)[C@H](CO)NS(=O)(=O)c1ccc2c(c1)Cc1ccccc1O2` when tested on MMP-9 (Homo sapiens) reads > 100 µM

The value of IC50 recorded for `CC(C)[C@@H](NS(=O)(=O)c1ccc2c(c1)Sc1ccccc1O2)C(=O)O` when tested on MMP-9 (Homo sapiens) reads 12 µM

The value of IC50 recorded for `O=C(O)[C@H](Cc1ccccc1)NS(=O)(=O)c1ccc2c(c1)Sc1ccccc1O2` when tested on MMP-9 (Homo sapiens) reads > 100 µM

---

Quick record of log10 IC50 values for MMP-7 (Homo sapiens, UniProt P09237).
# log10 transformed; quantity=IC50; unit=µM

The recorded log10 IC50 for entry `O=C(O)[C@H](CCc1ccccc1)NS(=O)(=O)c1ccc2c(c1)Sc1ccccc1O2` equals 0.90

The recorded log10 IC50 for entry `O=C(O)[C@H](CO)NS(=O)(=O)c1ccc2c(c1)Sc1ccccc1O2` equals 1.36

The recorded log10 IC50 for entry `O=C(O)[C@H](Cc1ccccc1)NS(=O)(=O)c1ccc2c(c1)Sc1ccccc1O2` equals 1.96

The recorded log10 IC50 for entry `O=C(O)[C@H](Cc1c[nH]c2ccccc12)NS(=O)(=O)c1ccc2c(c1)Sc1ccccc1O2` equals 1.73

The recorded log10 IC50 for entry `NC(=O)C[C@H](NS(=O)(=O)c1ccc2c(c1)Sc1ccccc1O2)C(=O)O` equals 1.15

The recorded log10 IC50 for entry `CC(C)C[C@H](NS(=O)(=O)c1ccc2c(c1)Sc1ccccc1O2)C(=O)O` equals 0.94

---

Molecular target: MMP-3CD (Homo sapiens, UniProt P08254)
Sequence (P08254 100-272 limits assumed): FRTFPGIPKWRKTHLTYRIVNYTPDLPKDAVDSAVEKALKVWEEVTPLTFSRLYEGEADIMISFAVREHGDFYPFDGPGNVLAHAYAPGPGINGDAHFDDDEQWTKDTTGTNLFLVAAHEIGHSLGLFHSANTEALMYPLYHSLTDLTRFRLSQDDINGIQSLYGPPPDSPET
Quantity Name: IC50
Answers without a unit are incomplete; give the number and then its unit.

Consider the worked cases shown below.
1. O=C(O)[C@H](CCc1ccccc1)NS(=O)(=O)c1ccc2c(c1)Sc1ccccc1O2
54 nM
2. O=C(O)[C@H](Cc1c[nH]c2ccccc12)NS(=O)(=O)c1ccc2c(c1)Sc1ccccc1O2
860 nM

The recorded IC50 for entry `CC(C)[C@H](NS(=O)(=O)c1ccc2c(c1)Sc1ccccc1O2)C(=O)O` equals 53 nM
